tested on: DIGSA; test: Post-emergence action at 320 g/ha against DIGSA; type: in vivo, Digitaria sanguinalis; settings: Digitaria sanguinalis, 504 h, dosage 320 g/ha, visual rating about 3 weeks after treatment vs untreated controls (100% = plants died)
PARAMETER: pest or weed control at 320 g/ha

>>> result("COC(=O)[C@@H](C)Oc1nn(-c2ccccc2F)c(-c2ccc(F)nc2)c1Br [VII-004]")
"90%"
>>> result("COC(=O)C(C)Oc1nn(-c2ccccc2)c(-c2ccc(F)nc2)c1Cl (stereo not drawn) [VII-023]")
"90%"
>>> result("COC(=O)COc1nn(-c2ccccc2F)c(-c2cncnc2)c1Br [VI-004]")
"90%"
>>> result("CCOC(=O)COc1nn(-c2ccccc2F)c(-c2ccnc(F)c2)c1Br [VIII-003]")
"80%"
>>> result("COC(=O)[C@@H](C)Oc1nn(-c2ccccc2F)c(-c2cncnc2)c1Br [VI-011]")
"90%"
>>> result("O=C(O)COc1nn(-c2ccccc2F)c(-c2cncnc2)c1Br [VI-007]")
"80%"
>>> result("C=CCNC(=O)COc1nn(-c2ccccc2F)c(-c2ccc(F)nc2)c1Br [Example X-001]")
"80%"
>>> result("CCOC(=O)COc1nn(-c2ccccc2F)c(-c2ccc(F)nc2)c1Br [VII-012]")
"80%"
>>> result("O=C(O)COc1nn(-c2ccccc2F)c(-c2ccc(F)nc2)c1Br [VII-003]")
"90%"

----------
system: ECHCG; assay: Post-emergence action at 320 g/ha against ECHCG; assay type: in vivo, Echinochloa crus-galli; conditions: dosage 320 g/ha, visual rating about 3 weeks after treatment vs untreated controls (100% = plants died)
PARAMETER: Post-emergence action at 320 g/ha against ECHCG in % (%)

>>> readout_number("CCOC(=O)COc1nn(-c2ccccc2F)c(-c2cncc(F)c2)c1Br [VII-015]")
90
>>> readout_number("CCOC(=O)C(C)Oc1nn(-c2ccccc2F)c(-c2ccc(F)nc2)c1Br (stereo not drawn) [VII-019]")
90
>>> readout_number("COC(=O)CNC(=O)COc1nn(-c2ccccc2F)c(-c2ccc(F)nc2)c1C(F)(F)F [Example X-007]")
80
>>> readout_number("COC(=O)COc1nn(-c2ccccc2F)c(-c2ccc(F)nc2)c1C(F)(F)F [VII-031]")
90
>>> readout_number("COC(=O)C(C)Oc1nn(-c2ccccc2)c(-c2ccc(F)nc2)c1Cl (stereo not drawn) [VII-023]")
80
>>> readout_number("O=C(O)COc1nn(-c2ccccc2F)c(-c2cncc(F)c2)c1Br [VII-025]")
90
>>> readout_number("COC(=O)C(C)Oc1nn(-c2ccccc2)c(-c2ccc(F)nc2)c1Br (stereo not drawn) [VII-014]")
80
>>> readout_number("CCOC(=O)COc1nn(-c2ccccc2F)c(-c2ccnc(F)c2)c1Br [VIII-003]")
80
>>> readout_number("COC(=O)COc1nn(-c2ccc(F)cc2)c(-c2cccnc2)c1Br [VII-028]")
80
>>> readout_number("COC(=O)COc1nn(-c2ccccc2F)c(-c2ccc(F)nc2)c1Br [VII-001]")
100
>>> readout_number("CCOC(=O)COc1nn(-c2ccccc2F)c(-c2ccc(F)nc2)c1F [VII-034]")
90
>>> readout_number("O=C(O)COc1nn(-c2ccccc2F)c(-c2ccnc(F)c2)c1Br [VIII-004]")
90
>>> readout_number("CCOC(=O)C(C)Oc1nn(-c2ccccc2F)c(-c2ccc(F)nc2)c1C(F)(F)F (stereo not drawn) [VII-066]")
80
>>> readout_number("CN(C)S(=O)(=O)NC(=O)COc1nn(-c2ccccc2F)c(-c2ccc(F)nc2)c1Br [Example X-005]")
80
>>> readout_number("COC(=O)CCOC(=O)COc1nn(-c2ccccc2F)c(-c2ccc(F)nc2)c1Br [VII-111]")
90
>>> readout_number("COC(=O)[C@@H](C)Oc1nn(-c2cc(F)ccc2F)c(-c2ccc(F)nc2)c1Br [VII-062]")
80
>>> readout_number("O=C(COc1nn(-c2ccccc2F)c(-c2ccc(F)nc2)c1Br)OCC1OCCO1 [VII-103]")
80
>>> readout_number("COC(=O)C(C)Oc1nn(-c2ccccc2)c(-c2cccnc2)c1Cl (stereo not drawn) [VII-032]")
90

----------
Pre-emergence action against VIOTR in % values by entry
tested on: VIOTR; assay: Pre-emergence action at 320 g/ha against VIOTR; format: in vivo, Viola tricolor; settings: dosage 320 g/ha
PARAMETER: Pre-emergence action against VIOTR in % (%)

>>> readout_number("CCOC(=O)COc1nn(-c2ccccc2F)c(-c2ccc(F)nc2)c1C(F)F [VII-078]")
90
>>> readout_number("C[C@@H](Oc1nn(-c2ccccc2F)c(-c2cncc(F)c2)c1Br)C(=O)O [VII-128]")
100
>>> readout_number("COC(=O)CCOC(=O)COc1nn(-c2ccccc2F)c(-c2ccc(F)nc2)c1Br [VII-111]")
100
>>> readout_number("COC(=O)COc1nn(-c2ccccc2)c(-c2ccc(F)nc2)c1Br [VII-018]")
90
>>> readout_number("CCOC(=O)COc1nn(-c2ccccc2F)c(-c2cncnc2)c1Br [VI-001]")
100
>>> readout_number("COC(=O)COc1nn(-c2ccc(F)cc2)c(-c2cccnc2)c1Br [VII-028]")
100
>>> readout_number("O=C(O)COc1nn(-c2ccccc2F)c(-c2ccc(F)nc2)c1F [VII-115]")
100
>>> readout_number("COC(=O)C1CCCN(C(=O)COc2nn(-c3ccccc3F)c(-c3ccc(F)nc3)c2Br)C1 (stereo not drawn) [Example X-018]")
90
>>> readout_number("CSCCOC(=O)COc1nn(-c2ccccc2F)c(-c2ccc(F)nc2)c1Br [VII-124]")
100

----------
test system: ALOMY; assay: Post-emergence action against ALOMY, 1.28 kg/ha; type: in vivo, Alopecurus myosuroides; conditions: dosage 1280 g/ha, visual rating about 3 weeks after treatment vs untreated controls
PARAMETER: Post-emergence action against ALOMY

>>> result("O=C(COc1nn(-c2ccccc2F)c(-c2ccc(F)nc2)c1Br)O[C@H]1CCOC1=O")
"100%"
>>> result("O=C(O)COc1nn(-c2ccccc2F)c(-c2cncc(F)c2)c1Br")
"100%"
>>> result("COC(=O)[C@@H](C)Oc1nn(-c2ccccc2F)c(-c2cncnc2)c1Br")
"100%"
>>> result("CONC(=O)COc1nn(-c2ccccc2F)c(-c2ccc(F)nc2)c1Br")
"100%"
>>> result("COC(=O)COc1nn(-c2cc(F)ccc2F)c(-c2ccc(F)nc2)c1C#N")
"100%"
>>> result("O=C(O)COc1nn(-c2ccc(F)cc2F)c(-c2ccc(F)nc2)c1Br")
"100%"
>>> result("COC(=O)[C@@H](C)Oc1nn(-c2ccccc2F)c(-c2cnc(F)c(F)c2)c1Br")
"100%"
>>> result("O=C(COc1nn(-c2ccccc2F)c(-c2ccc(F)nc2)c1Br)OCC1OCCO1")
"100%"
>>> result("CCOC(=O)COc1nn(-c2ccccc2F)c(-c2ccc(F)nc2)c1I")
"100%"
>>> result("O=C(O)COc1nn(-c2ccc(F)cc2)c(-c2ccc(F)nc2)c1I")
"100%"
>>> result("COC(=O)[C@@H](C)Oc1nn(-c2ccccc2)c(-c2cccnc2)c1Br")
"100%"
>>> result("COC(=O)COc1nn(-c2ccccc2F)c(-c2ccc(F)nc2)c1F")
"100%"
>>> result("O=C(COc1nn(-c2ccccc2F)c(-c2ccc(F)nc2)c1Br)N1CCSC1=O")
"90%"
>>> result("CS(=O)(=O)NC(=O)COc1nn(-c2ccccc2F)c(-c2ccc(F)nc2)c1Br")
"100%"
>>> result("CSc1c(OCC(=O)O)nn(-c2ccccc2F)c1-c1ccc(F)nc1")
"100%"
>>> result("COC(=O)CNC(=O)COc1nn(-c2ccccc2F)c(-c2ccc(F)nc2)c1Br")
"90%"
>>> result("CCOC(=O)COc1nn(-c2ccccc2C)c(-c2ccc(F)nc2)c1I")
"100%"
>>> result("O=C(O)C1CCCN1C(=O)COc1nn(-c2ccccc2F)c(-c2cncc(F)c2)c1Br (stereo not drawn)")
"90%"

----------
As shown below, each of these compounds has a reported pest or weed control at 320 g/ha value.
Test system: LOLRI
Assay: Pre-emergence action at 320 g/ha against LOLRI
Format: in vivo, Lolium rigidum
Conditions: Lolium rigidum, 504 h, visual scoring after about 3 weeks vs untreated controls
Text: b) Seeds of monocotyledonous and dicotyledonous weed plants and crop plants are placed in plastic or organic planting pots and covered with soil. […] After about 3 weeks, the effect of the preparations is scored visually in comparison with untreated controls as percentages. […]
PARAMETER: pest or weed control at 320 g/ha (%)

>>> readout_number("COC(=O)COc1nn(-c2ccccc2F)c(-c2cncnc2)c1Br [VI-004]")
90
>>> readout_number("COC(=O)[C@@H](C)Oc1nn(-c2ccccc2F)c(-c2ccc(F)nc2)c1Br [VII-004]")
80
>>> readout_number("COC(=O)[C@@H](C)Oc1nn(-c2ccccc2F)c(-c2cncnc2)c1Br [VI-011]")
100
>>> readout_number("O=C(O)COc1nn(-c2ccccc2F)c(-c2ccc(F)nc2)c1Br [VII-003]")
100
>>> readout_number("O=C(O)COc1nn(-c2ccccc2F)c(-c2cncnc2)c1Br [VI-007]")
100
>>> readout_number("C=CCNC(=O)COc1nn(-c2ccccc2F)c(-c2ccc(F)nc2)c1Br [Example X-001]")
100
>>> readout_number("CCOC(=O)COc1nn(-c2ccccc2F)c(-c2ccnc(F)c2)c1Br [VIII-003]")
90
>>> readout_number("COC(=O)C(C)Oc1nn(-c2ccccc2)c(-c2ccc(F)nc2)c1Cl (stereo not drawn) [VII-023]")
100
>>> readout_number("CCOC(=O)COc1nn(-c2ccccc2F)c(-c2ccc(F)nc2)c1Br [VII-012]")
90
